Ref: PubChem BioAssay AID2060602

Tested on: 648629-189-R-J1-PDC complex spheroids viability
assay_overview: Anticancer human tumor 648629-189-R-J1-PDC patient-derived bladder carcinoma cell line growth inhibition [CLK]
test_parameters: second compound 0.1 µM; first compound 10 µM; stronger effect = lower value
Text: A high-throughput screen of multi-cell type tumor spheroids was designed to identify active combinations of […] and targeted small molecules. Complex spheroids include a stromal component modeled by human endothelial cells (HUVEC) and fibroblasts modeled by human mesenchymal stem cells (MSCs). […] Compounds. […] If the clinical Cmax for an agent had not been determined, the highest concentration tested was 10 microM. […]
value_type: viability, T/C (%)
Note: unit % is implicit; provide only the numeric part.

Consider the worked cases shown below.
INSERT INTO measurements (compound, value_type, endpoint_unit, obs_value) VALUES
  ('C=CC(=O)N1CCN(c2nc(=O)n(-c3c(C)ccnc3C(C)C)c3nc(-c4c(O)cccc4F)c(F)cc23)C(C)C1 (stereo not drawn) + CN1CCN(c2cc(C(=O)Nc3cc4cc(-c5cnn(C)c5)ccc4cn3)ccn2)CC1', 'viability, T/C', '%', 102),
  ('CC(CO)NC(=O)c1cc(-c2ccc(Cl)cc2)nn(-c2cnn(C)c2)c1=O (stereo not drawn) + CNC(=O)c1ccc(Nc2nc(OC3CCCC3)c3c(-c4ccc5nc(C)oc5c4)c[nH]c3n2)c(OC)c1', 'viability, T/C', '%', 82.8);

Item CC(Nc1ccc2c(c1)OCCn1cc(N3C(=O)OCC3C(F)F)nc1-2)C(N)=O (stereo not drawn) + CN1CCN(c2cc(C(=O)Nc3cc4cc(-c5cnn(C)c5)ccc4cn3)ccn2)CC1 with 648629-189-R-J1-PDC complex spheroids viability - viability, T/C? 46.8

----------
Test system: 648629-189-R-J1-PDC complex spheroids viability
assay_overview: Anticancer human tumor 648629-189-R-J1-PDC cell line growth inhibition [CLK]; active = viability on the fitted dose curve at most 10% of control; inactive = the rest
test_parameters: second compound 3.16 µM; first compound 0.1 µM
Description: A high-throughput screen of multi-cell type tumor spheroids was designed to identify active combinations of […] and targeted small molecules. Complex spheroids include a stromal component modeled by human endothelial cells (HUVEC) and fibroblasts modeled by human mesenchymal stem cells (MSCs). […] Compounds. […] If the clinical Cmax for an agent had not been determined, the highest concentration tested was 10 microM. […]
Thanks in advance; please answer with one of these: active, inactive

Please review the entries below; each comes with its answer.
INSERT INTO results (compound, class) VALUES
  ('CC(=O)O[C@H]1C(=O)[C@@]2(C)[C@H]([C@H](OC(=O)c3ccccc3)[C@]3(O)C[C@H](OC(=O)[C@H](O)[C@@H](NC(=O)c4ccccc4)c4ccccc4)C(C)=C1C3(C)C)[C@]1(OC(C)=O)CO[C@@H]1C[C@@H]2O + CN1CCN(c2cc(C(=O)Nc3cc4cc(-c5cnn(C)c5)ccc4cn3)ccn2)CC1', 'active'),
  ('C=C(F)C(=O)N1CCN(c2nc(OCC3CCCN3C)nc3c2CCN(c2cccc4cccc(Cl)c24)C3)CC1CC#N (stereo not drawn) + CN1CCN(c2cc(C(=O)Nc3cc4cc(-c5cnn(C)c5)ccc4cn3)ccn2)CC1', 'active');

Consider the additional compound presented here.
What was the test verdict on CCCS(=O)(=O)Nc1ccc(F)c(C(=O)c2c[nH]c3ncc(-c4ccc(Cl)cc4)cc23)c1F + CNC(=O)c1ccc(Nc2nc(OC3CCCC3)c3c(-c4ccc5nc(C)oc5c4)c[nH]c3n2)c(OC)c1 ? inactive

----------
# viability, T/C per record follows
Tested on: 648629-189-R-J1-PDC complex spheroids viability
assay_overview: Anticancer human tumor 648629-189-R-J1-PDC cell line growth inhibition [CLK];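 for viability, T/C: drug exposure lasted seven days before viability readout; 100% = DMSO vehicle control wells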
test_parameters: second compound 1 µM; first compound 3.16 µM; stronger effect = lower value
Note: unit % is implicit; provide only the numeric part.

INSERT INTO results (compound, endpoint_unit, obs_value) VALUES
  ('CC(=O)O[C@H]1C(=O)[C@@]2(C)[C@H]([C@H](OC(=O)c3ccccc3)[C@]3(O)C[C@H](OC(=O)[C@H](O)[C@@H](NC(=O)c4ccccc4)c4ccccc4)C(C)=C1C3(C)C)[C@]1(OC(C)=O)CO[C@@H]1C[C@@H]2O + CNC(=O)c1ccc(Nc2nc(OC3CCCC3)c3c(-c4ccc5nc(C)oc5c4)c[nH]c3n2)c(OC)c1', '%', 75);

Next compound, please.
Query (compound): CC(Nc1ccc2c(c1)OCCn1cc(N3C(=O)OCC3C(F)F)nc1-2)C(N)=O (configuration not stated) + CNC(=O)c1ccc(Nc2nc(OC3CCCC3)c3c(-c4ccc5nc(C)oc5c4)c[nH]c3n2)c(OC)c1 ; field requested: viability, T/C 16.6

----------
Test system: 648629-189-R-J1-PDC complex spheroids viability
assay_overview: Anticancer human tumor 648629-189-R-J1-PDC cell line growth inhibition [CLK];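 for viability, T/C: drug exposure lasted seven days before viability readout; 100% = DMSO vehicle control wells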
test_parameters: second compound 3.16 µM; first compound 0.1 µM; stronger effect = lower value
value_type: viability, T/C (%)
Note: unit % is implicit; provide only the numeric part.

INSERT INTO assay_data (compound, obs_value) VALUES
  ('O=c1[nH]cc(F)c(=O)[nH]1 + CNC(=O)c1ccc(Nc2nc(OC3CCCC3)c3c(-c4ccc5nc(C)oc5c4)c[nH]c3n2)c(OC)c1', 20.4),
  ('Nc1ccn(C2OC(CO)C(O)C2(F)F)c(=O)n1 (stereo unspecified) + CN1CCN(c2cc(C(=O)Nc3cc4cc(-c5cnn(C)c5)ccc4cn3)ccn2)CC1', 1.1),
  ('COc1ccc([C@@H](O)c2cc(-c3ncnc4cc(N5CCOCC5)ccc34)c(F)cc2Cl)nn1 + CN1CCN(c2cc(C(=O)Nc3cc4cc(-c5cnn(C)c5)ccc4cn3)ccn2)CC1', 0.6),
  ('CCc1c2c(nc3ccc(O)cc13)-c1cc3c(c(=O)n1C2)COC(=O)[C@]3(O)CC + CN1CCN(c2cc(C(=O)Nc3cc4cc(-c5cnn(C)c5)ccc4cn3)ccn2)CC1', 0.07),
  ('CC(CO)NC(=O)c1cc(-c2ccc(Cl)cc2)nn(-c2cnn(C)c2)c1=O (stereo unspecified) + CNC(=O)c1ccc(Nc2nc(OC3CCCC3)c3c(-c4ccc5nc(C)oc5c4)c[nH]c3n2)c(OC)c1', 21.2);

Query (compound): O=C(c1cc(Cc2n[nH]c(=O)c3ccccc23)ccc1F)N1CCN(C(=O)C2CC2)CC1 + CNC(=O)c1ccc(Nc2nc(OC3CCCC3)c3c(-c4ccc5nc(C)oc5c4)c[nH]c3n2)c(OC)c1 ; field requested: viability, T/C 18.9

----------
# IC50 per record follows
System: 648629-189-R-J1-PDC complex spheroids viability
assay_overview: Anticancer human tumor 648629-189-R-J1-PDC cell line growth inhibition [CLK]
test_parameters: curve of first compound; second compound 0.1 µM
Note: unit µM is implicit; provide only the numeric part.

Item CC(C)CC(NC(=O)C(Cc1ccccc1)NC(=O)c1cnccn1)B(O)O (stereo not given) + CNC(=O)c1ccc(Nc2nc(OC3CCCC3)c3c(-c4ccc5nc(C)oc5c4)c[nH]c3n2)c(OC)c1 with 648629-189-R-J1-PDC complex spheroids viability - IC50? 0.00221

Proceed to COc1c(OCCCN2CCOCC2)ccc2c3n(c(=NC(=O)c4cnc(N)nc4)nc12)CCN3 + CNC(=O)c1ccc(Nc2nc(OC3CCCC3)c3c(-c4ccc5nc(C)oc5c4)c[nH]c3n2)c(OC)c1 0.093

Proceed to COC1C=CCC(C)C(C)S(=O)(=O)NC(=O)c2ccc3c(c2)N(CC2CCC21)CC1(CCCc2cc(Cl)ccc21)CO3 (stereo not given) + CN1CCN(c2cc(C(=O)Nc3cc4cc(-c5cnn(C)c5)ccc4cn3)ccn2)CC1 2.1

----------
Test system: 648629-189-R-J1-PDC complex spheroids viability
assay_overview: Anticancer human tumor 648629-189-R-J1-PDC cell line growth inhibition [CLK]; active = viability on the fitted dose curve at most 10% of control; inactive = the rest
test_parameters: second compound 3.16 µM; first compound 0.00316 µM
Thanks in advance; please answer with one of these: active, inactive

INSERT INTO results (molecule, class) VALUES
  ('CCc1c2c(nc3ccc(O)cc13)-c1cc3c(c(=O)n1C2)COC(=O)[C@]3(O)CC + CN1CCN(c2cc(C(=O)Nc3cc4cc(-c5cnn(C)c5)ccc4cn3)ccn2)CC1', 'active'),
  ('Cn1ncnc1[C@H]1c2n[nH]c(=O)c3cc(F)cc(c23)N[C@@H]1c1ccc(F)cc1 + CN1CCN(c2cc(C(=O)Nc3cc4cc(-c5cnn(C)c5)ccc4cn3)ccn2)CC1', 'active'),
  ('COc1c(OCCCN2CCOCC2)ccc2c3n(c(=NC(=O)c4cnc(N)nc4)nc12)CCN3 + CN1CCN(c2cc(C(=O)Nc3cc4cc(-c5cnn(C)c5)ccc4cn3)ccn2)CC1', 'active'),
  ('CCN1CCN(Cc2ccc(Nc3ncc(F)c(-c4cc(F)c5nc(C)n(C(C)C)c5c4)n3)nc2)CC1 + CN1CCN(c2cc(C(=O)Nc3cc4cc(-c5cnn(C)c5)ccc4cn3)ccn2)CC1', 'active');

Consider the additional molecule presented here.
What was the test verdict on Cn1ncnc1[C@H]1c2n[nH]c(=O)c3cc(F)cc(c23)N[C@@H]1c1ccc(F)cc1 + CNC(=O)c1ccc(Nc2nc(OC3CCCC3)c3c(-c4ccc5nc(C)oc5c4)c[nH]c3n2)c(OC)c1 ? inactive
